Target system: MCL-1/Bim interaction (recombinant human MCL-1 protein, residues 171-327; biotinylated human Bim peptide, residues 51-76) (Homo sapiens (Human), UniProt Q07820)
Sequence (Q07820 171-327): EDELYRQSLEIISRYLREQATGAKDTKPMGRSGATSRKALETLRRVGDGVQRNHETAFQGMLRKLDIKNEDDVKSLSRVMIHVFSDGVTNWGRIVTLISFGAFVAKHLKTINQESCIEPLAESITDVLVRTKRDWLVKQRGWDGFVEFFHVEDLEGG
Protocol notes: MCL-1/Bim Binding AlphaLISA Assay
Test parameters: 0.0625 nM 6xHis-Mcl-1 (171-327), 0.0625 nM biotinylated-Bim peptide
pIC50: −log10 of the molar value.
Entry flag: MET if pIC50 reaches 10; NOT MET if it does not.

Req: Is pIC50 at least 10? Consider CO[C@H]1/C=C/C[C@H](C)C[S@@](=O)(NC(=O)c2cc(CO)n(C)c2)=NC(=O)c2ccc3c(c2)N(C[C@@H]2CC[C@H]21)C[C@@]1(CCCc2cc(Cl)ccc21)CO3
Resp: MET

Req: Hello, I need to know if CO[C@H]1/C=C/C[C@H](C)C[S@@](=O)(NC(=O)N[C@H]2C[C@](C)(O)C2)=NC(=O)c2ccc3c(c2)N(C[C@@H]2CC[C@H]21)C[C@@]1(CCCc2cc(Cl)ccc21)CO3 has measured pIC50 not below 10. Thanks!
Resp: MET

Req: // inclusive: pIC50 at least 10? input: CO[C@H]1/C=C/C[C@H](C)C[S@@](=O)(NC(=O)c2cc(C)n(C)c2)=NC(=O)c2ccc3c(c2)N(C[C@@H]2CC[C@H]21)C[C@@]1(CCCc2cc(Cl)ccc21)CO3
Resp: NOT MET

Req: Answer whether pIC50 of CO[C@H]1/C=C/C[C@H](C)C[S@@](=O)(NC(=O)CO[C@H]2CCOC[C@H]2F)=NC(=O)c2ccc3c(c2)N(C[C@@H]2CC[C@H]21)C[C@@]1(CCCc2cc(Cl)ccc21)CO3 is greater than or equal to 10.
Resp: MET

Req: I'd appreciate it if you could say whether CO[C@H]1/C=C/C[C@H](C)C[S@@](=O)(NC(=O)N2CC(C(C)(C)OC)C2)=NC(=O)c2ccc3c(c2)N(C[C@@H]2CC[C@H]21)C[C@@]1(CCCc2cc(Cl)ccc21)CO3 has pIC50 at least equal to 10.
Resp: MET
